property_measured: melting point (°C)
The figure you give is taken to be in °C; do not add the unit.

compound=O=C(Nc1ccccc1)c1ccccc1O recorded_number=136
compound=CC(C)C(C)C recorded_number=-129
compound=COc1cc(OC)n2nc(S(=O)(=O)Nc3c(Cl)ccc(C)c3Cl)nc2n1 recorded_number=211
compound=O=C(OC(=O)C(F)(F)F)C(F)(F)F recorded_number=-65
compound=C=CCCCCCCCCCCCCCCCCC recorded_number=23

Report melting point, nothing else, for this compound: COc1ccc(C(C)=O)c(OC)c1OC 15.8

Report melting point, nothing else, for this compound: O=[N+]([O-])c1cccc(Br)c1 56

Report melting point, nothing else, for this compound: CC#CCCC -89.6

Report melting point, nothing else, for this compound: CCOP(=O)(NC(C)C)Oc1ccc(SC)c(C)c1 (stereo unspecified) 49

Report melting point, nothing else, for this compound: Oc1ccc(Cl)c(O)c1 107

Report melting point, nothing else, for this compound: C=CCC1(C2C=CCCC2)C(=O)NC(=S)NC1=O (stereo unspecified) 149

Report melting point, nothing else, for this compound: Cc1ccc2[nH]c(C)cc2c1 115
